Tested on: Giardia intestinalis trophozoites
Assay: Drug susceptibility of Giardia trophozoites, ATP level by luminescence (BacTiter-Glo), 48 h incubation, anaerobic or microaerobic
Assay type: cell-based, Giardia intestinalis strain WB clone C6
Conditions: human (Caco-2 cells) versus Giardia intestinalis, Caco-2, SI = IC50,Caco-2/IC50,Giardia; Giardia under microaerobiosis; read-out: Selectivity (IC50,Caco/IC50,Giardia) Microaerobiosis
What selectivity ratio at 48 h was measured for each of the following?
The response must contain the number and no unit.

Can you share its selectivity ratio at 48 h? I mean this compound: Cc1ccc(-n2cc(Cn3c(=O)c(/C=C/C(=O)c4ccccc4F)cc4ccccc43)nn2)cc1 [Compound 32] 29.3

Also Cc1ccc(C(=O)/C=C/c2cc3ccccc3n(Cc3cn(-c4ccc(Cl)cc4)nn3)c2=O)cc1 [Compound 55] , if possible. 18.2

Also O=C(/C=C/c1cc2ccccc2n(Cc2cn(-c3ccc(F)cc3)nn2)c1=O)c1ccc(Cl)cc1 [Compound 44] , if possible. 7.2

Also O=C(/C=C/c1cc2ccccc2n(Cc2cn(-c3ccc(F)cc3)nn2)c1=O)c1ccc(Br)cc1 [Compound 45] , if possible. 33.4

Also Cc1ccc(C(=O)/C=C/c2cc3ccccc3n(Cc3cn(-c4ccccc4)nn3)c2=O)cc1 [Compound 64] , if possible. 35.6

Also O=C(/C=C/c1cc2ccccc2n(Cc2cn(-c3ccc(Cl)cc3)nn2)c1=O)c1ccc(F)cc1 [Compound 52] , if possible. 19.9

Also COc1cccc(C(=O)/C=C/c2cc3ccccc3n(Cc3cn(-c4ccc(Cl)cc4)nn3)c2=O)c1 [Compound 57] , if possible. 11.3

Also Cc1ccc(-n2cc(Cn3c(=O)c(/C=C/C(=O)c4ccc(F)cc4)cc4ccccc43)nn2)cc1 [Compound 34] , if possible. 7.8

Also O=C(/C=C/c1cc2ccccc2n(Cc2cn(-c3ccc(F)cc3)nn2)c1=O)c1ccc(F)cc1 [Compound 43] , if possible. 23.3

Also COc1ccccc1C(=O)/C=C/c1cc2ccccc2n(Cc2cn(-c3ccc(Cl)cc3)nn2)c1=O [Compound 56] , if possible. 14

Also O=C(/C=C/c1cc2ccccc2n(Cc2cn(-c3ccccc3)nn2)c1=O)c1ccc(Cl)cc1 [Compound 62] , if possible. 8.4

Also O=C(/C=C/c1cc2ccccc2n(Cc2cn(-c3ccc(F)cc3)nn2)c1=O)c1cccc(F)c1 [Compound 42] , if possible. 13.7

Also O=C(/C=C/c1cc2ccccc2n(Cc2cn(-c3ccccc3)nn2)c1=O)c1ccc(F)cc1 [Compound 61] , if possible. 22.8

Also O=C(/C=C/c1cc2ccccc2n(Cc2cn(-c3ccccc3)nn2)c1=O)c1ccccc1F [Compound 59] , if possible. 28

Also Cc1ccc(-n2cc(Cn3c(=O)c(/C=C/C(=O)c4ccc(Cl)cc4)cc4ccccc43)nn2)cc1 [Compound 35] , if possible. 8.8

* * *

Test system: Giardia intestinalis trophozoites
Experiment: Drug susceptibility of Giardia trophozoites, ATP level by luminescence (BacTiter-Glo), 48 h incubation, anaerobic or microaerobic
Format: cell-based, Giardia intestinalis strain WB clone C6
Settings: Giardia duodenalis, 48 h, microaerobic conditions (~5% O2, Anaerocult C), 48 h, 37 °C, ATP level; read-out: Giardia (microaerobiosis) IC50
test.readout: pIC50
pIC50 (log units): -log10 of the concentration in mol/L.

Can you share its pIC50? I mean this molecule: Cc1ccc(C(=O)/C=C/c2cc3ccccc3n(Cc3cn(-c4ccc(C)cc4)nn3)c2=O)cc1 5.80

Also COc1ccccc1C(=O)/C=C/c1cc2ccccc2n(Cc2cn(-c3ccccc3)nn2)c1=O , if possible. 6.40

Also COc1ccc(C(=O)/C=C/c2cc3ccccc3n(Cc3cn(-c4ccccc4)nn3)c2=O)cc1 , if possible. 6.10

Also O=C(/C=C/c1cc2ccccc2n(Cc2cn(-c3ccc(Cl)cc3)nn2)c1=O)c1ccc(F)cc1 , if possible. 5.92

Also COc1cccc(C(=O)/C=C/c2cc3ccccc3n(Cc3cn(-c4ccc(Cl)cc4)nn3)c2=O)c1 , if possible. 5.96

Also O=C(/C=C/c1cc2ccccc2n(Cc2cn(-c3ccccc3)nn2)c1=O)c1ccccc1F , if possible. 6.40

Also O=C(/C=C/c1cc2ccccc2n(Cc2cn(-c3ccc(F)cc3)nn2)c1=O)c1ccc(Cl)cc1 , if possible. 6.00

Also O=C(/C=C/c1cc2ccccc2n(Cc2cn(-c3ccc(F)cc3)nn2)c1=O)c1cccc(F)c1 , if possible. 6.15

Also O=C(/C=C/c1cc2ccccc2n(Cc2cn(-c3ccccc3)nn2)c1=O)c1ccc(F)cc1 , if possible. 6.10

Also O=C(/C=C/c1cc2ccccc2n(Cc2cn(-c3ccc(F)cc3)nn2)c1=O)c1ccc(F)cc1 , if possible. 6.52

Also O=C(/C=C/c1cc2ccccc2n(Cc2cn(-c3ccc(F)cc3)nn2)c1=O)c1ccc(Br)cc1 , if possible. 6.30

Also COc1ccc(-n2cc(Cn3c(=O)c(/C=C/C(=O)c4ccc(F)cc4)cc4ccccc43)nn2)cc1 , if possible. 5.89

Also Cc1ccc(-n2cc(Cn3c(=O)c(/C=C/C(=O)c4ccc(Br)cc4)cc4ccccc43)nn2)cc1 , if possible. 5.64

* * *

Test system: Giardia intestinalis trophozoites
Test: Drug susceptibility of Giardia trophozoites, ATP level by luminescence (BacTiter-Glo), 48 h incubation, anaerobic or microaerobic
Format: cell-based, Giardia intestinalis strain WB clone C6
Settings: SI = IC50,Caco-2/IC50,Giardia; Giardia under microaerobiosis
What Selectivity (IC50,Caco/IC50,Giardia) Microaerobiosis was measured for each of the following?

Can you share its Selectivity (IC50,Caco/IC50,Giardia) Microaerobiosis? I mean this compound: O=C(/C=C/c1cc2ccccc2n(Cc2cn(-c3ccccc3)nn2)c1=O)c1ccc(Br)cc1 ≥ 50

Also COc1ccc(-n2cc(Cn3c(=O)c(/C=C/C(=O)c4ccc(Br)cc4)cc4ccccc43)nn2)cc1 , if possible. ≥10

Also COc1ccc(-n2cc(Cn3c(=O)c(/C=C/C(=O)c4cccc(F)c4)cc4ccccc43)nn2)cc1 , if possible. ≥6

Also COc1ccc(C(=O)/C=C/c2cc3ccccc3n(Cc3cn(-c4ccc(F)cc4)nn3)c2=O)cc1 , if possible. ≥38

Also COc1ccc(-n2cc(Cn3c(=O)c(/C=C/C(=O)c4cccc(OC)c4)cc4ccccc43)nn2)cc1 , if possible. ≥153

Also O=C(/C=C/c1cc2ccccc2n(Cc2cn(-c3ccc(F)cc3)nn2)c1=O)c1ccccc1F , if possible. 26

Also Cc1ccc(-n2cc(Cn3c(=O)c(/C=C/C(=O)c4cccc(F)c4)cc4ccccc43)nn2)cc1 , if possible. 19,1

* * *

What melting point was measured for each of the following?

Can you share its melting point? I mean this compound: O=C(/C=C/c1cc2ccccc2n(Cc2cn(-c3ccc(Cl)cc3)nn2)c1=O)c1ccccc1F 242 to 244 °C

Also COc1cccc(C(=O)/C=C/c2cc3ccccc3n(Cc3cn(-c4ccccc4)nn3)c2=O)c1 , if possible. 224 to 226 °C

Also O=C(/C=C/c1cc2ccccc2n(Cc2cn(-c3ccccc3)nn2)c1=O)c1ccccc1F , if possible. 172 to 174 °C

Also COc1ccc(C(=O)/C=C/c2cc3ccccc3n(Cc3cn(-c4ccc(C)cc4)nn3)c2=O)cc1 , if possible. 182 to 184 °C

Also Cc1ccc(-n2cc(Cn3c(=O)c(/C=C/C(=O)c4ccc(Br)cc4)cc4ccccc43)nn2)cc1 , if possible. 216 to 218 °C

* * *

Tested on: Giardia intestinalis trophozoites
Assay: Drug susceptibility of Giardia trophozoites, ATP level by luminescence (BacTiter-Glo), 48 h incubation, anaerobic or microaerobic
Assay type: cell-based, Giardia intestinalis strain WB clone C6
Conditions: human (Caco-2 cells) versus Giardia intestinalis, Caco-2, SI = IC50,Caco-2/IC50,Giardia; Giardia under anaerobiosis; read-out: Selectivity (IC50,Caco/IC50,Giardia) Anaerobiosis
test.readout: selectivity ratio at 48 h

Can you share its selectivity ratio at 48 h? I mean this molecule: Cc1ccc(C(=O)/C=C/c2cc3ccccc3n(Cc3cn(-c4ccc(C)cc4)nn3)c2=O)cc1 ≥ 7

Also COc1ccc(C(=O)/C=C/c2cc3ccccc3n(Cc3cn(-c4ccccc4)nn3)c2=O)cc1 , if possible. ≥ 16

Also COc1ccc(-n2cc(Cn3c(=O)c(/C=C/C(=O)c4ccc(Cl)cc4)cc4ccccc43)nn2)cc1 , if possible. ≥ 4

Also O=C(/C=C/c1cc2ccccc2n(Cc2cn(-c3ccc(Cl)cc3)nn2)c1=O)c1ccc(Cl)cc1 , if possible. ≥ 3

Also COc1ccc(-n2cc(Cn3c(=O)c(/C=C/C(=O)c4ccc(F)cc4)cc4ccccc43)nn2)cc1 , if possible. ≥ 5

Also COc1ccccc1C(=O)/C=C/c1cc2ccccc2n(Cc2cn(-c3ccc(F)cc3)nn2)c1=O , if possible. ≥ 7

Also COc1cccc(C(=O)/C=C/c2cc3ccccc3n(Cc3cn(-c4ccccc4)nn3)c2=O)c1 , if possible. > 15

Also O=C(/C=C/c1cc2ccccc2n(Cc2cn(-c3ccc(Cl)cc3)nn2)c1=O)c1ccccc1F , if possible. ≥ 10

Also COc1ccc(-n2cc(Cn3c(=O)c(/C=C/C(=O)c4ccccc4OC)cc4ccccc43)nn2)cc1 , if possible. > 15

Also Cc1ccc(-n2cc(Cn3c(=O)c(/C=C/C(=O)c4ccc(Br)cc4)cc4ccccc43)nn2)cc1 , if possible. ≥ 4

Also COc1cccc(C(=O)/C=C/c2cc3ccccc3n(Cc3cn(-c4ccc(F)cc4)nn3)c2=O)c1 , if possible. ≥ 8

Also O=C(/C=C/c1cc2ccccc2n(Cc2cn(-c3ccc(Cl)cc3)nn2)c1=O)c1cccc(F)c1 , if possible. ≥ 10

Also COc1ccc(-n2cc(Cn3c(=O)c(/C=C/C(=O)c4ccc(C)cc4)cc4ccccc43)nn2)cc1 , if possible. ≥ 14

Also O=C(/C=C/c1cc2ccccc2n(Cc2cn(-c3ccccc3)nn2)c1=O)c1cccc(F)c1 , if possible. ≥ 14

Also COc1ccc(C(=O)/C=C/c2cc3ccccc3n(Cc3cn(-c4ccc(Cl)cc4)nn3)c2=O)cc1 , if possible. ≤ 0.2

Also Cc1ncc([N+](=O)[O-])n1CCO [MTZ, metronidazole, reference compound] , if possible. ≥ 29

These data points were gathered from paper PMC4389562.
